Where these numbers come from: ChEMBL document CHEMBL1136587

# target: Methionine--tRNA ligase (Enterococcus faecalis (strain ATCC 700802 / V583))
# measurement-notes: In vitro Antibacterial activity of compound against Enterococcus faecalis
# Format: functional
What MIC90 was measured for each of the following?
Your answer should be a plain number; it is taken to be in µg/mL.

Query: MIC90 lookup needed for `CCOc1c(Cl)cc(Cl)cc1CNCCCNc1cc(O)c2ccccc2n1` , thanks.
Response: 0.06

Query: Please do the same for CCc1cc(I)c2c(c1)C(NCCCNc1cc(=O)c3ccccc3[nH]1)CCN2 (stereo unspecified) as well.
Response: 0.25

Query: Please do the same for Oc1cc(NCCCNC2CCNc3c(Br)cc(Br)cc32)nc2ccccc12 (stereo unspecified) as well.
Response: 0.03

Query: Please do the same for Oc1cc(NCCCNC2CCNc3c(Br)cc(Cl)cc32)nc2ccccc12 (stereo unspecified) as well.
Response: 0.06

Query: Please do the same for `CCOc1c(Br)cc(SC)cc1CNCCCNc1cc(O)c2ccccc2n1` as well.
Response: 0.5

Query: Please do the same for `CCOc1c(Br)cc(OC)cc1CNCCCNc1cc(O)c2ccccc2n1` as well.
Response: 0.06

====

# Test system: Staphylococcus epidermidis
measured-endpoint: MIC90

Query: MIC90 lookup needed for `CCOc1c(Cl)cc(Cl)cc1CNCCCNc1cc(O)c2ccccc2n1` , thanks.
Response: 2 mg/L

Query: Please do the same for Oc1cc(NCCCNC2CCNc3c(Br)cc(Br)cc32)nc2ccccc12 (configuration not stated) as well.
Response: 0.5 mg/L

Query: Please do the same for Oc1cc(NCCCNC2CCNc3c(Br)cc(Cl)cc32)nc2ccccc12 (configuration not stated) as well.
Response: 1 mg/L

Query: Please do the same for `CCOc1c(Br)cc(SC)cc1CNCCCNc1cc(O)c2ccccc2n1` as well.
Response: 0.25 mg/L

Query: Please do the same for CCc1cc(I)c2c(c1)C(NCCCNc1cc(=O)c3ccccc3[nH]1)CCN2 (configuration not stated) as well.
Response: 1 mg/L

Query: Please do the same for O=c1cc(NCCCNC2CCOc3c(I)cc(Cl)cc32)[nH]c2ccccc12 (configuration not stated) as well.
Response: 0.25 mg/L

Query: Please do the same for `CCOc1c(Br)cc(OC)cc1CNCCCNc1cc(O)c2ccccc2n1` as well.
Response: 2 mg/L

====

# Test system: Staphylococcus aureus
# measurement-notes: In vitro Antibacterial activity of compound against Staphylococcus aureus
measured-endpoint: MIC90 (µg/mL)
Your answer should be a plain number; it is taken to be in µg/mL.

Query: Could you share what MIC90 was measured for Oc1cc(NCCCNC2CCNc3c(Br)cc(Br)cc32)nc2ccccc12 (configuration not stated) , tested on Staphylococcus aureus?
Response: 0.5

Query: Please do the same for `CCOc1c(Br)cc(OC)cc1CNCCCNc1cc(O)c2ccccc2n1` as well.
Response: 2

Query: Please do the same for `CCOc1c(Br)cc(SC)cc1CNCCCNc1cc(O)c2ccccc2n1` as well.
Response: 0.25

Query: Please do the same for CCc1cc(I)c2c(c1)C(NCCCNc1cc(=O)c3ccccc3[nH]1)CCN2 (configuration not stated) as well.
Response: 1

Query: Please do the same for O=c1cc(NCCCNC2CCOc3c(I)cc(Cl)cc32)[nH]c2ccccc12 (configuration not stated) as well.
Response: 0.25

Query: Please do the same for Oc1cc(NCCCNC2CCNc3c(Br)cc(Cl)cc32)nc2ccccc12 (configuration not stated) as well.
Response: 1

Query: Please do the same for `CCOc1c(Cl)cc(Cl)cc1CNCCCNc1cc(O)c2ccccc2n1` as well.
Response: 2
